Biological target: Human Prostatic 5α-Reductase (Homo sapiens, UniProt P31213)
Sequence (P31213 whole entry): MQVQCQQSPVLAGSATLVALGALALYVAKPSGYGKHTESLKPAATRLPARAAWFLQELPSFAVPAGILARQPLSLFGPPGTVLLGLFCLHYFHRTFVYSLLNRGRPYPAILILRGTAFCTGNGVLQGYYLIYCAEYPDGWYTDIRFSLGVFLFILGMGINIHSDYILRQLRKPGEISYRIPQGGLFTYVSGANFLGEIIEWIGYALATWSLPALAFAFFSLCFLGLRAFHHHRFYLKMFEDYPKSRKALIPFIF
Assay: Inhibition of human prostatic 5α-reductase (prostatic microsomes, [3H]testosterone)
Details: read-out: % Inhibition of 5α-reductase, [I] 10 nM

{"molecule": "C[C@@H](O)C1=CC[C@H]2[C@@H]3CCC4=CC(=O)CC[C@]4(C)[C@H]3CC[C@]12C [Compound L-10, 20β-hydroxy-pregna-4,16-dien-3-one]", "test system": "Human Prostatic 5α-Reductase (Homo sapiens, UniProt P31213)", "inhibition at 0.01 µM [%]": 97}
{"molecule": "C[C@H](O)[C@H]1CC[C@H]2[C@@H]3CCC4=CC(=O)CC[C@]4(C)[C@H]3CC[C@]12C", "test system": "Human Prostatic 5α-Reductase (Homo sapiens, UniProt P31213)", "inhibition at 0.01 µM [%]": 28.5}
{"molecule": "C[C@@H](O)C1=CC[C@H]2[C@@H]3CC=C4C[C@@H](O)CC[C@]4(C)[C@H]3CC[C@]12C", "test system": "Human Prostatic 5α-Reductase (Homo sapiens, UniProt P31213)", "inhibition at 0.01 µM [%]": 37.1}
